Cited source for all entries: the Human Domainome abundance scans (Beltran et al. 2025)

B1: POU domain, class 6, transcription factor 2, residues 609 to 663; numbered along this chain, P78424 (parent)
chain: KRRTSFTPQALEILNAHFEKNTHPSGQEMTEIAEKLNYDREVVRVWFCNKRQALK

variants of: B1; assay: abundance fitness (aPCA) (normalised: wild type 0, dead -1); higher = more abundant; growth selection in yeast, the domain comes from the species named; details: Homo sapiens
Kindly supply the reported abundance fitness values for the records listed here.
// no unit string in output, number only

Query: Report abundance fitness for "H23S" please.
Result: 0.036

Query: Report abundance fitness for "F6Y" please.
Result: -0.187

Query: Report abundance fitness for "T7W" please.
Result: -0.409

Query: Report abundance fitness for "H17A" please.
Result: -0.03

Query: Report abundance fitness for "V43C" please.
Result: -0.24

Query: Report abundance fitness for "N21P" please.
Result: -0.987

Query: Report abundance fitness for "K55G" please.
Result: -0.226

Query: Report abundance fitness for "K35T" please.
Result: 0.071

Query: Report abundance fitness for "F18I" please.
Result: -0.562

Query: Report abundance fitness for "S25Q" please.
Result: -0.313

Query: Report abundance fitness for "K35P" please.
Result: -0.883

Query: Report abundance fitness for "E28Y" please.
Result: -0.113

Query: Report abundance fitness for "F18T" please.
Result: -0.961

Query: Report abundance fitness for "C48G" please.
Result: -0.008

Query: Report abundance fitness for "K50I" please.
Result: -0.916

Query: Report abundance fitness for "T4R" please.
Result: -0.204

Query: Report abundance fitness for "A10W" please.
Result: -0.87

Query: Report abundance fitness for "S25C" please.
Result: -0.232

Query: Report abundance fitness for "D39P" please.
Result: 0.037

Query: Report abundance fitness for "N21F" please.
Result: -0.659

Query: Report abundance fitness for "K1R" please.
Result: -0.269

Query: Report abundance fitness for "S5D" please.
Result: -0.063

Query: Report abundance fitness for "A10M" please.
Result: -0.206

Query: Report abundance fitness for "Q27T" please.
Result: 0.022

Query: Report abundance fitness for "V45H" please.
Result: -0.141

Query: Report abundance fitness for "E19L" please.
Result: -0.057

Query: Report abundance fitness for "P8T" please.
Result: 0.477

Query: Report abundance fitness for "T4L" please.
Result: -0.063

Query: Report abundance fitness for "E19G" please.
Result: -0.148

Query: Report abundance fitness for "F47K" please.
Result: -0.722

Query: Report abundance fitness for "A53W" please.
Result: -0.089

Query: Report abundance fitness for "N15I" please.
Result: -0.78

Query: Report abundance fitness for "S25V" please.
Result: -0.207

Query: Report abundance fitness for "W46R" please.
Result: -0.753

Query: Report abundance fitness for "G26Q" please.
Result: -0.415

Query: Report abundance fitness for "T22W" please.
Result: -0.176

Query: Report abundance fitness for "Q9G" please.
Result: -0.06

Query: Report abundance fitness for "P24A" please.
Result: -0.497

Query: Report abundance fitness for "E12R" please.
Result: -0.107

Query: Report abundance fitness for "E28T" please.
Result: -0.088

Query: Report abundance fitness for "E41N" please.
Result: -0.185

Query: Report abundance fitness for "L11M" please.
Result: -0.092

Query: Report abundance fitness for "E19H" please.
Result: -0.092

Query: Report abundance fitness for "T22P" please.
Result: 0.016

Query: Report abundance fitness for "C48Q" please.
Result: 0.279

Query: Report abundance fitness for "K50H" please.
Result: -0.444
